# Assay details: activity coefficient (dimensionless); of the first substance listed, at infinite dilution; xn = mol fraction of the nth substance listed
# Condition summary: 308.15 K; 101 kPa; Liquid; Chromatography; x1 = 0
Decision: activity coefficient beneath 40 gives fulfilled; activity coefficient meeting or exceeding 40 gives not fulfilled.

**Query** Hello, I'm reviewing records and need to know if activity coefficient of CCCCCCCC [octane] + O=S(=O)([N-]S(=O)(=O)C(F)(F)F)C(F)(F)F.OCCC[n+]1ccccc1 is below 40. Could you check?
**Result** not fulfilled

**Query** Also need CCC(C)CC [3-methylpentane] + O=S(=O)([N-]S(=O)(=O)C(F)(F)F)C(F)(F)F.OCCC[n+]1ccccc1 , thanks.
**Result** not fulfilled

**Query** Also need C1CCCCCCC1 [cyclooctane] + O=S(=O)([N-]S(=O)(=O)C(F)(F)F)C(F)(F)F.OCCC[n+]1ccccc1 , thanks.
**Result** not fulfilled

**Query** Also need CCCCCCCCCC [decane] + O=S(=O)([N-]S(=O)(=O)C(F)(F)F)C(F)(F)F.OCCC[n+]1ccccc1 , thanks.
**Result** not fulfilled

**Query** Also need CC(C)CC(C)(C)C [2,2,4-trimethylpentane] + O=S(=O)([N-]S(=O)(=O)C(F)(F)F)C(F)(F)F.OCCC[n+]1ccccc1 , thanks.
**Result** not fulfilled

**Query** Also need COC(C)(C)C [2-methoxy-2-methylpropane] + O=S(=O)([N-]S(=O)(=O)C(F)(F)F)C(F)(F)F.OCCC[n+]1ccccc1 , thanks.
**Result** fulfilled

**Query** Also need CCCOCCC [dipropyl ether] + O=S(=O)([N-]S(=O)(=O)C(F)(F)F)C(F)(F)F.OCCC[n+]1ccccc1 , thanks.
**Result** fulfilled

**Query** Also need C1CCCCCC1 [cycloheptane] + O=S(=O)([N-]S(=O)(=O)C(F)(F)F)C(F)(F)F.OCCC[n+]1ccccc1 , thanks.
**Result** fulfilled

**Query** Also need CC1CCCCC1 [methylcyclohexane] + O=S(=O)([N-]S(=O)(=O)C(F)(F)F)C(F)(F)F.OCCC[n+]1ccccc1 , thanks.
**Result** fulfilled

**Query** Also need CCCCCCCCC [nonane] + O=S(=O)([N-]S(=O)(=O)C(F)(F)F)C(F)(F)F.OCCC[n+]1ccccc1 , thanks.
**Result** not fulfilled
